System: ATP;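 note: ATP exposure 15 min at 22 °C before imaging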
assay_details: switch fluorescence ratio, 500 uM ATP over buffer (Cy3 cluster intensity, sum of 5 cycles each) (fold (ratio)); higher = stronger signal-on switching upon ATP binding; sequences stand for … in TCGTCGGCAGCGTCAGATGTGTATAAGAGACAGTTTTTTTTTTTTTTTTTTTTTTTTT…TC
assay_setup: aptamer strand: ATP DNA aptamer (quencher-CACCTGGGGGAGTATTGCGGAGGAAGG + anchor), 100 nM annealed; ATP concentration: 500 uM
Could you label it met if measured switch fluorescence ratio is 1 or higher, and not met otherwise?

> print(dat)
    seq.string  assigned.label
 1  TTACAGTCGT             met
 2  TCCAGGTGGG             met
 3  CCGTGCGAAA             met
 4  TTTGGCATTA             met
 5  AATTTTTAAA         not met
 6  TCGTAAGTAA             met
 7  TTTCGAAACG             met
 8  TGGGGCCGTG             met
 9  CCTGGGGAAA         not met
10  GCATGGCTGC             met
11  TCCTCGAGCT             met
